Below are IC50 measurements against 3',5'-cyclic-AMP phosphodiesterase 4C (Homo sapiens) drawn from the literature.
Sequence (Q08493 whole entry): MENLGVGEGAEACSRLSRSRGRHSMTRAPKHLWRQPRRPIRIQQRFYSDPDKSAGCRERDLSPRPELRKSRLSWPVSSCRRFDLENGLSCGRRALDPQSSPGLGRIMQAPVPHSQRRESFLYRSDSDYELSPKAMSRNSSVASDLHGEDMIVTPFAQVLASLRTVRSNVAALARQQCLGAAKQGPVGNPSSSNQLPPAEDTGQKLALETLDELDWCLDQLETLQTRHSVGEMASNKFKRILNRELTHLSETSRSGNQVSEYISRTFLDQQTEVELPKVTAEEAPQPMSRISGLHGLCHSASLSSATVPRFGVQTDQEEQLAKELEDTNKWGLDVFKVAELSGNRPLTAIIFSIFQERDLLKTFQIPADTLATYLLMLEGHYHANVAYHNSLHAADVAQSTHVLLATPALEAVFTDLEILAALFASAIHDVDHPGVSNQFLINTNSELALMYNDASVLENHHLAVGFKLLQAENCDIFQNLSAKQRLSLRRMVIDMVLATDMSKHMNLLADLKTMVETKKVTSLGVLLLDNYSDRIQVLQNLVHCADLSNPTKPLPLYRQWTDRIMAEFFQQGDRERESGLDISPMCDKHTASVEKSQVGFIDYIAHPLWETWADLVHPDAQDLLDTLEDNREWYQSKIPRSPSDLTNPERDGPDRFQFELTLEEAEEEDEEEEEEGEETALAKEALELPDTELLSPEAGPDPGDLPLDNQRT

COc1ccc(C2=NN(C3CCCCCC3)C(=O)C2(C)C)cc1OCCCCOc1ccc(-c2nnn[nH]2)cc1: 10 nM

Lab note: CC(C)c1cc(-c2cccc(CC(c3ccncc3)C(C)(C)O)c2)c2ncccc2c1 (centres undefined) gave IC50 of 106 nM

Form: compound = O=C(O)c1ccc(-c2cc3cccnc3c(-c3cccc(Cl)c3)n2)cc1 ; IC50 = 190 nM

What the record says about CC(C)c1n[nH]c2c(=O)[nH]c(C[C@@H]3CCCC[C@H]3Nc3ncc(C(=O)O)c(C(F)(F)F)n3)nc12 : IC50 is > 1000 nM
